Molecular target: CDK6 (Homo sapiens, UniProt Q00534)
Sequence (Q00534 whole entry): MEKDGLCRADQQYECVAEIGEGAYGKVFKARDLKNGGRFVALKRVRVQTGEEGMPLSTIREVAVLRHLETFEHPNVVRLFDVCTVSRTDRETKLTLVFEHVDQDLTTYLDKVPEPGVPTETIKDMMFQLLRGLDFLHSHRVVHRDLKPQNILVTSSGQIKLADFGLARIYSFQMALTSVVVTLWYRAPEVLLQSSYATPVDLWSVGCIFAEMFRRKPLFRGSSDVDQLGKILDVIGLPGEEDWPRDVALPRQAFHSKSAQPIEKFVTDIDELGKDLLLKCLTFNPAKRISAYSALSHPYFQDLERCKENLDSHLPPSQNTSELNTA
Sequence (P24385 whole entry partner): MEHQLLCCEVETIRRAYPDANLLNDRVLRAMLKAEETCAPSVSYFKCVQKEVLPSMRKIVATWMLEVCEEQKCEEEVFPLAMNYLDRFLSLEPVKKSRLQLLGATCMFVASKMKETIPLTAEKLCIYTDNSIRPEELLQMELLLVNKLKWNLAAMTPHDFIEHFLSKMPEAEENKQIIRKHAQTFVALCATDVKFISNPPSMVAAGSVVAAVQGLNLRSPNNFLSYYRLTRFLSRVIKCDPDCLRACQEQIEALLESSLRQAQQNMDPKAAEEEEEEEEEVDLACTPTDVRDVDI
Test: In vitro kinase inhibition IC50, luminescence (ADP Glo), retinoblastoma substrate
Details: read-out: CDK6/D1 IC50
pIC50: −log10 of the molar value.
Observation type: pIC50

(1) N#Cc1cc2cnc(NC3CCCC3O)nc2n(C2CCCC2)c1=O (centres unmarked) [Compound No. 349]
(2) CS(=O)(=O)N1CC[C@@H](Nc2ncc3cc(C#N)c(=O)n(C4CCCC4)c3n2)[C@H](F)C1 [Compound No. 362]
(3) CS(=O)(=O)N1CCC(Nc2ncc3cc(C#N)c(=O)n(C4CCC4)c3n2)CC1 [Compound No. 368]
# rank_down: sort by pIC50, max first # respond with the labels, arranged in the requested order 3, 2, 1
(3: 8.47, 2: 7.82, 1: 7.21)

(I) CN1CCC(c2ccc(Nc3cc4c(cn3)cc(C#N)c(=O)n4C3CCCC3)cc2)CC1 [Compound No. 89]
(II) CS(=O)(=O)N1CCC(Nc2ncc3cc(C#N)c(=O)n([C@H]4CCC(F)(F)C4)c3n2)CC1 [Compound No. 384]
Pick the one with the larger pIC50: I vs II Select an item and report its label. I
(I: 8.00, II: 7.70)
